target: G-protein coupled receptor 35 (Homo sapiens); assay: Agonist activity at human GPR35 expressed in CHO cells assessed as induction of beta-arrestin recruitment at 10 uM after 90 mins by beta-galactosidase reporter gene assay relative to zaprinast; format: cell-based
Sequence (Q9HC97 whole entry): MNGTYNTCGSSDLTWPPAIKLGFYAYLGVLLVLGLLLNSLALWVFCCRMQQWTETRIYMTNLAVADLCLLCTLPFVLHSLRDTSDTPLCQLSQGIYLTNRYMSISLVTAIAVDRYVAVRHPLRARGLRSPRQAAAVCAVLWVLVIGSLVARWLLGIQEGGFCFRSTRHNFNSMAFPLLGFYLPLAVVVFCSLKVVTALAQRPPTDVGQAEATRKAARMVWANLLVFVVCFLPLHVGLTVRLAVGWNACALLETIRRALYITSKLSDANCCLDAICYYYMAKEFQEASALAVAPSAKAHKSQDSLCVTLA
property_measured: Emax (%)

These solved cases illustrate the format of a correct answer.
CCOC(=O)c1cc(=O)c2cc(F)cc(NC(=O)c3ccc(OC)cc3)c2o1 80
O=C(Nc1cccc2c(=O)cc(C(=O)O)oc12)c1ccc2ccccc2n1 81

A = COc1ccc(C(=O)Nc2cc(Br)cc3c(=O)cc(C(=O)O)oc23)c(Cl)c1
B = Nc1cc(Br)cc2c(=O)cc(C(=O)O)oc12
Lab note: check whether A or B shows the higher recorded Emax. Output the label that corresponds to your choice. A

----------
assay: Inhibition of AMPA receptor (unknown origin); design: species or system Homo sapiens
property_measured: IC50 (µM)
Response body: numeric value in µM, unit text excluded.

Reported IC50 ( O=C(O)c1cc(=O)c2ccccc2[nH]1 [TRANSTORINE] ) = 10

----------
target: G protein-coupled receptor GPR35 (Rattus norvegicus) (UniProt Q33BM1); assay: Agonist activity at rat GPR35 expressed in CHO cells assessed as induction of beta-arrestin recruitment at 10 uM after 90 mins by beta-galactosidase reporter gene assay relative to zaprinast; type: cell-based
Sequence (Q33BM1 as listed by the source): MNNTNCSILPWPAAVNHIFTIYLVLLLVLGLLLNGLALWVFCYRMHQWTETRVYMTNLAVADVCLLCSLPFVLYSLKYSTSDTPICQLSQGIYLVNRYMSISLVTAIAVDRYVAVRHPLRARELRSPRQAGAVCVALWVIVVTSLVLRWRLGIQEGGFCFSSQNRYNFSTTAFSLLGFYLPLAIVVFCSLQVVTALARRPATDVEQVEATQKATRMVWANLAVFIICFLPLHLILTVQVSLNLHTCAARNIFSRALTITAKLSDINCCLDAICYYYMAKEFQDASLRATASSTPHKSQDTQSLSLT
property_measured: Emax (%)

compound	u	Emax
COc1ccc(C(=O)Nc2cc(Br)cc3c(=O)cc(C(=O)O)oc23)nc1	%	68
O=C(Nc1cc(Br)cc2c(=O)cc(C(=O)O)oc12)c1ccc(Cl)c(Cl)c1	%	62
O=C(Nc1cc(Cl)cc2c(=O)cc(C(=O)O)oc12)c1ccccc1	%	65
CCOc1ccc(C(=O)Nc2cc(Br)cc3c(=O)cc(C(=O)O)oc23)cc1	%	74
Cc1cccc(C(=O)Nc2cccc3c(=O)cc(C(=O)O)oc23)c1	%	71
O=C(O)c1cc(=O)c2c(OCC(O)COc3cccc4oc(C(=O)O)cc(=O)c34)cccc2o1 [CROMOLYN SODIUM]	%	104
COc1ccc(C(=O)Nc2cccc3c(=O)cc(C(=O)O)oc23)cc1	%	85
COc1ccc(C(=O)Nc2cc(Br)cc3c(=O)cc(C(=O)O)oc23)cn1	%	94
Cc1cccc(C(=O)Nc2cc(Cl)cc3c(=O)cc(C(=O)O)oc23)c1	%	92
O=C(Nc1cc(F)cc2c(=O)cc(C(=O)O)oc12)c1ccc(Cl)c(Cl)c1	%	80

----------
experiment: Inhibition of PDE (unknown origin); parameters: species or system Homo sapiens
property_measured: pKi
Scale for pKi: -log10 of concentration given in mol/L; no unit attached.

Reported pKi ( O=C(O)c1cc(=O)c2c(OCC(O)COc3cccc4oc(C(=O)O)cc(=O)c34)cccc2o1 [CROMOLYN SODIUM] ) = 9.10

----------
target: G protein-coupled receptor GPR35 (Rattus norvegicus) (UniProt Q33BM1); experiment: Agonist activity at rat GPR35 expressed in CHO cells assessed as induction of beta-arrestin recruitment at 10 uM after 90 mins by beta-galactosidase reporter gene assay relative to zaprinast; type: cell-based
property_measured: Emax (%)

COC(=O)CC(=O)Nc1cccc2c(=O)cc(C(=O)O)oc12 89
COc1ccc(C(=O)Nc2cc(Cl)cc3c(=O)cc(C(=O)O)oc23)cc1 86
O=C(Nc1cc(Br)cc2c(=O)cc(C(=O)O)oc12)c1ccc2c(c1)OCO2 86
N#Cc1ccc(C(=O)Nc2cc(Br)cc3c(=O)cc(C(=O)O)oc23)cc1 99
COc1ccc(C(=O)Nc2cc(Br)cc3c(=O)cc(C(=O)O)oc23)c(Cl)c1 81
COc1ccc(C(=O)Nc2cc(F)cc3c(=O)cc(C(=O)O)oc23)cc1 78
O=C(O)c1cc(=O)c2cccc(NC(=O)C3CCCCC3)c2o1 79
O=C(O)c1cc(=O)c2cc(F)cc(NC(=O)c3cccc(Cl)c3Cl)c2o1 82
COc1ccccc1C(=O)Nc1cc(Br)cc2c(=O)cc(C(=O)O)oc12 73
Cc1cccc(C(=O)Nc2cc(Br)cc3c(=O)cc(C(=O)O)oc23)c1 79
